- Protocol Summary: Pharmacokinetic evaluation after intravenous or gavage administration to dogs
- Type: in vivo, Beagle dogs
- Measurement Parameters: beagle, dog, in vivo, po, 5 mg/kg
So I've got a bunch of compounds here, and I need their half-life values.
Numbers only, in h.

Worked set:
[[record]]
compound = "Cc1ccc(-n2nccn2)c(C(=O)N2CC3CN(c4nc5cc(Cl)ccc5o4)CC3C2)c1 (stereo not drawn)"
result_units = "h"
data_value = 4.41

[[record]]
compound = "O=C(c1c(F)cccc1-n1nccn1)N1CC2CN(c3nc4cc(Cl)ccc4o3)CC2C1 (stereo not drawn)"
result_units = "h"
data_value = 2.93


Read the next record carefully.
Problem: Find the recorded half-life belonging to Cc1ccc(-n2nccn2)c(C(=O)N2CC3CN(c4ncc5cc(F)ccc5n4)CC3C2)c1 (stereo not drawn) and report it.
Solution: 1.99

====

- Protocol Summary: Pharmacokinetic evaluation after intravenous or gavage administration to dogs
- Type: in vivo, Beagle dogs
- Measurement Parameters: beagle, dog, in vivo; dogs, iv, 1 mg/kg; read-out: Cmax
Experimental Endpoint: Cmax (ng/mL)
Numbers only, in ng/mL.

Problem: Find the recorded Cmax belonging to Cc1ccc(-n2nccn2)c(C(=O)N2CCN(c3nc4cc(Cl)ccc4o3)CC[C@H]2C)c1 [suvorexant, reference compound] and report it.
Solution: 2100

====

- Protocol Summary: Pharmacokinetic evaluation after intravenous or gavage administration to dogs
- Assay type: in vivo, Beagle dogs
- Measurement Parameters: beagle, dog, in vivo; dogs, iv, 1 mg/kg; read-out: AUCINF
Experimental Endpoint: AUC(0-inf) (ng·h/mL)
Numbers only, in ng·h/mL.

Problem: Find the recorded AUC(0-inf) belonging to Cc1ccc(-n2nccn2)c(C(=O)N2CCN(c3nc4cc(Cl)ccc4o3)CC[C@H]2C)c1 [suvorexant, reference compound] and report it.
Solution: 5960

====

- Protocol Summary: Pharmacokinetic evaluation after intravenous or gavage administration to rats
- Type: in vivo, SD rats
- Measurement Parameters: SD, rat, in vivo, iv, 1 mg/kg
Returns T if the recorded half-life is greater than or equal to 30 min, and F otherwise.

Take a look at these entries with their results.
[[record]]
compound = "O=C(c1c(F)cccc1-n1nccn1)N1CC2CN(c3nc4cc(Cl)ccc4o3)CC2C1 (centres unmarked)"
class_label = "T"

[[record]]
compound = "Cc1ccc(-n2nccn2)c(C(=O)N2CC3CN(c4ncc5cc(F)ccc5n4)CC3C2)c1 (centres unmarked)"
class_label = "F"

[[record]]
compound = "O=C(c1ccccc1-n1nccn1)N1CC2CN(c3nc4cc(Cl)ccc4o3)CC2C1 (centres unmarked)"
class_label = "T"


Next, consider the following compound.
Problem: Textbook exercise: given the entry Cc1ccc(-n2nccn2)c(C(=O)N2CC3CN(c4nc5cc(Cl)ccc5o4)CC3C2)c1 (centres unmarked) , state whether its half-life is greater than or equal to 30 min.
Solution: T

====

- Protocol Summary: Pharmacokinetic evaluation after intravenous or gavage administration to rats
- Type: in vivo, SD rats
- Measurement Parameters: SD, rat, in vivo, iv, 1 mg/kg
Returns Satisfied if the recorded Vd is greater than or equal to 1 L/kg, and Not satisfied otherwise.

Take a look at these entries with their results.
[[record]]
compound = "Cc1ccc(-n2nccn2)c(C(=O)N2CC3CN(c4nc5cc(Cl)ccc5o4)CC3C2)c1 (centres unmarked)"
class_label = "Satisfied"

[[record]]
compound = "O=C(c1ccccc1-n1nccn1)N1CC2CN(c3ncc4cc(F)ccc4n3)CC2C1 (centres unmarked)"
class_label = "Not satisfied"

[[record]]
compound = "O=C(c1ccccc1-n1nccn1)N1CC2CN(c3nc4cc(Cl)ccc4o3)CC2C1 (centres unmarked)"
class_label = "Satisfied"


Problem: Textbook exercise: given the entry O=C(c1c(F)cccc1-n1nccn1)N1CC2CN(c3nc4cc(Cl)ccc4o3)CC2C1 (centres unmarked) , state whether its Vd is greater than or equal to 1 L/kg.
Solution: Satisfied

====

- Protocol Summary: Pharmacokinetic evaluation after intravenous or gavage administration to rats
- Assay type: in vivo, SD rats
- Measurement Parameters: SD, rat, in vivo, iv, 1 mg/kg
Experimental Endpoint: MRT inf (min)
One number for each entry, in min.

Worked set:
[[record]]
compound = "O=C(c1ccccc1-n1nccn1)N1CC2CN(c3ncc4cc(F)ccc4n3)CC2C1 (centres unmarked)"
result_units = "min"
data_value = 32.9

[[record]]
compound = "O=C(c1c(F)cccc1-n1nccn1)N1CC2CN(c3nc4cc(Cl)ccc4o3)CC2C1 (centres unmarked)"
result_units = "min"
data_value = 45.5

[[record]]
compound = "Cc1ccc(-n2nccn2)c(C(=O)N2CC3CN(c4ncc5cc(F)ccc5n4)CC3C2)c1 (centres unmarked)"
result_units = "min"
data_value = 25.6

[[record]]
compound = "O=C(c1ccccc1-n1nccn1)N1CC2CN(c3nc4cc(Cl)ccc4o3)CC2C1 (centres unmarked)"
result_units = "min"
data_value = 47.2


Read the next record carefully.
Problem: Find the recorded MRT inf belonging to Cc1ccc(-n2nccn2)c(C(=O)N2CC3CN(c4nc5cc(Cl)ccc5o4)CC3C2)c1 (centres unmarked) and report it.
Solution: 38.3

====

- Protocol Summary: Pharmacokinetic evaluation after intravenous or gavage administration to dogs
- Assay type: in vivo, Beagle dogs
- Measurement Parameters: beagle, dog, in vivo; dogs, iv, 1 mg/kg; read-out: AUClast
Experimental Endpoint: AUC(0-t) (ng·h/mL)
Numbers only, in ng·h/mL.

Problem: Find the recorded AUC(0-t) belonging to Cc1ccc(-n2nccn2)c(C(=O)N2CCN(c3nc4cc(Cl)ccc4o3)CC[C@H]2C)c1 [suvorexant, reference compound] and report it.
Solution: 5750

====

- Protocol Summary: Pharmacokinetic evaluation after intravenous or gavage administration to dogs
- Assay type: in vivo, Beagle dogs
- Measurement Parameters: beagle, dog, in vivo, po, 5 mg/kg
Experimental Endpoint: AUC(0-inf)
Please give the number followed by its unit.

[[record]]
compound = "Cc1ccc(-n2nccn2)c(C(=O)N2CC3CN(c4nc5cc(Cl)ccc5o4)CC3C2)c1 (centres unmarked)"
experimental_endpoint = "AUC(0-inf)"
data_value = "16300 ng·h/mL"


Read the next record carefully.
Problem: Find the recorded AUC(0-inf) belonging to Cc1ccc(-n2nccn2)c(C(=O)N2CC3CN(c4ncc5cc(F)ccc5n4)CC3C2)c1 (centres unmarked) and report it.
Solution: 7880 ng·h/mL

====

- Protocol Summary: Pharmacokinetic evaluation after intravenous or gavage administration to rats
- Format: in vivo, SD rats
- Measurement Parameters: SD, rat, in vivo, po, 2.5 mg/kg
Experimental Endpoint: AUC(0-t) (ng·h/mL)
One number for each entry, in ng·h/mL.

Worked set:
[[record]]
molecule = "O=C(c1ccccc1-n1nccn1)N1CC2CN(c3nc4cc(Cl)ccc4o3)CC2C1 (centres unmarked)"
experimental_endpoint = "AUC(0-t)"
data_value = 783

[[record]]
molecule = "O=C(c1c(F)cccc1-n1nccn1)N1CC2CN(c3nc4cc(Cl)ccc4o3)CC2C1 (centres unmarked)"
experimental_endpoint = "AUC(0-t)"
data_value = 904

[[record]]
molecule = "O=C(c1ccccc1-n1nccn1)N1CC2CN(c3ncc4cc(F)ccc4n3)CC2C1 (centres unmarked)"
experimental_endpoint = "AUC(0-t)"
data_value = 750

[[record]]
molecule = "Cc1ccc(-n2nccn2)c(C(=O)N2CC3CN(c4ncc5cc(F)ccc5n4)CC3C2)c1 (centres unmarked)"
experimental_endpoint = "AUC(0-t)"
data_value = 452


Problem: Find the recorded AUC(0-t) belonging to Cc1ccc(-n2nccn2)c(C(=O)N2CC3CN(c4nc5cc(Cl)ccc5o4)CC3C2)c1 (centres unmarked) and report it.
Solution: 482

====

- Protocol Summary: Pharmacokinetic evaluation after intravenous or gavage administration to rats
- Type: in vivo, SD rats
- Measurement Parameters: SD, rat, in vivo, po, 2.5 mg/kg
Returns Y if the recorded half-life is greater than or equal to 50 min, and N otherwise.

Take a look at these entries with their results.
[[record]]
compound = "Cc1ccc(-n2nccn2)c(C(=O)N2CC3CN(c4nc5cc(Cl)ccc5o4)CC3C2)c1 (centres unmarked)"
class_label = "Y"

[[record]]
compound = "O=C(c1ccccc1-n1nccn1)N1CC2CN(c3ncc4cc(F)ccc4n3)CC2C1 (centres unmarked)"
class_label = "N"

[[record]]
compound = "O=C(c1c(F)cccc1-n1nccn1)N1CC2CN(c3nc4cc(Cl)ccc4o3)CC2C1 (centres unmarked)"
class_label = "Y"


Problem: Textbook exercise: given the entry O=C(c1ccccc1-n1nccn1)N1CC2CN(c3nc4cc(Cl)ccc4o3)CC2C1 (centres unmarked) , state whether its half-life is greater than or equal to 50 min.
Solution: Y

====

- Protocol Summary: Pharmacokinetic evaluation after intravenous or gavage administration to rats
- Type: in vivo, SD rats
- Measurement Parameters: SD, rat, in vivo; rats, iv, 2 mg/kg; read-out: AUClast
Experimental Endpoint: AUC(0-t) (ng·h/mL)
Give bare numbers, in ng·h/mL.

Problem: Find the recorded AUC(0-t) belonging to Cc1ccc(-n2nccn2)c(C(=O)N2CCN(c3nc4cc(Cl)ccc4o3)CC[C@H]2C)c1 [suvorexant, reference compound] and report it.
Solution: 655

// provenance: patent US10370380B2
